Collected IC50 values appear next to each entry.
# TARGET_DESC: FLT3 (Homo sapiens)
# Sequence (P36888 27-993): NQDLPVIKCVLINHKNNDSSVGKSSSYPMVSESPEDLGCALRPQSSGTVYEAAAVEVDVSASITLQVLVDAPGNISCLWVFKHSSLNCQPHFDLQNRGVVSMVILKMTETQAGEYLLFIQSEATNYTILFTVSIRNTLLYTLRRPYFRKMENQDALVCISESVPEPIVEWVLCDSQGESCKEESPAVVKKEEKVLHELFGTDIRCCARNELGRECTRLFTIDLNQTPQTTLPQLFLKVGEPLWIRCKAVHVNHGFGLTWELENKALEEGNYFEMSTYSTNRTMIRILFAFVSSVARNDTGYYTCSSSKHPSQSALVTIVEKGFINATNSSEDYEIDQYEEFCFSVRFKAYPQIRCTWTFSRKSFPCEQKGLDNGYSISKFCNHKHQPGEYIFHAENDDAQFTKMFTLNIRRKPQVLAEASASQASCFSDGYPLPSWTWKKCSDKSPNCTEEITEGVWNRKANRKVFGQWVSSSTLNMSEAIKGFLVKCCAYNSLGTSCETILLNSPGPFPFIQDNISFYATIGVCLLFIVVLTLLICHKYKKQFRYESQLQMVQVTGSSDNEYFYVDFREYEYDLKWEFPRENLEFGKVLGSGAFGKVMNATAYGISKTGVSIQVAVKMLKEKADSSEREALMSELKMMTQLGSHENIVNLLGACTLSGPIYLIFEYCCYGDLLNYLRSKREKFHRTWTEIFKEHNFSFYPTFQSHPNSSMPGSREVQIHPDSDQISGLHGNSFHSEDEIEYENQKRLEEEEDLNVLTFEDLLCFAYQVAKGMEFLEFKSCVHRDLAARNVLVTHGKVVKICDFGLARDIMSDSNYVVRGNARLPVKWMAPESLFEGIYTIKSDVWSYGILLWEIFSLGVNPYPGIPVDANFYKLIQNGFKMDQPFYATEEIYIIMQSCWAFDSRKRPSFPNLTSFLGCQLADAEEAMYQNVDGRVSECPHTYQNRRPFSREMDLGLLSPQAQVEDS
# ASSAY_TEXT: FLT3 biochemical assay (ADP Hunter);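 note: FLT3 enzymatic activity quantified through the ADP produced by the kinase reaction, detected with an ADP Hunter readout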
# PARTICULARS: actual IC50 value in parentheses
Supply the numeric figure in nM, leaving out any unit text.

Here are 3 compounds together with their reported answers.
FC(F)(F)Oc1cccc(-n2nnc3ccc(N4CCCC5(CCCN5)CC4)nc32)c1 (stereo not shown)
28
FC(F)(F)Oc1cccc(-n2nnc3cc(Cl)c(N4CCCC5(CCCN5)CC4)nc32)c1 (stereo not shown)
20
FC(F)(F)Oc1cccc(-n2nnc3cc(Br)c(NCC4CCNCC4)nc32)c1
58

Switching to the query record.
Query: Quickly give me recorded IC50 for FC(F)(F)c1cccc(-n2nnc3cc(Cl)c(NCC4CCNCC4)nc32)c1
Response: 94
